Source of measurements: patent US8129366B2

Biological target: hα4 and β1 integrins (Homo sapiens, UniProt P05556+P13612)
Sequence (P13612 34-1032): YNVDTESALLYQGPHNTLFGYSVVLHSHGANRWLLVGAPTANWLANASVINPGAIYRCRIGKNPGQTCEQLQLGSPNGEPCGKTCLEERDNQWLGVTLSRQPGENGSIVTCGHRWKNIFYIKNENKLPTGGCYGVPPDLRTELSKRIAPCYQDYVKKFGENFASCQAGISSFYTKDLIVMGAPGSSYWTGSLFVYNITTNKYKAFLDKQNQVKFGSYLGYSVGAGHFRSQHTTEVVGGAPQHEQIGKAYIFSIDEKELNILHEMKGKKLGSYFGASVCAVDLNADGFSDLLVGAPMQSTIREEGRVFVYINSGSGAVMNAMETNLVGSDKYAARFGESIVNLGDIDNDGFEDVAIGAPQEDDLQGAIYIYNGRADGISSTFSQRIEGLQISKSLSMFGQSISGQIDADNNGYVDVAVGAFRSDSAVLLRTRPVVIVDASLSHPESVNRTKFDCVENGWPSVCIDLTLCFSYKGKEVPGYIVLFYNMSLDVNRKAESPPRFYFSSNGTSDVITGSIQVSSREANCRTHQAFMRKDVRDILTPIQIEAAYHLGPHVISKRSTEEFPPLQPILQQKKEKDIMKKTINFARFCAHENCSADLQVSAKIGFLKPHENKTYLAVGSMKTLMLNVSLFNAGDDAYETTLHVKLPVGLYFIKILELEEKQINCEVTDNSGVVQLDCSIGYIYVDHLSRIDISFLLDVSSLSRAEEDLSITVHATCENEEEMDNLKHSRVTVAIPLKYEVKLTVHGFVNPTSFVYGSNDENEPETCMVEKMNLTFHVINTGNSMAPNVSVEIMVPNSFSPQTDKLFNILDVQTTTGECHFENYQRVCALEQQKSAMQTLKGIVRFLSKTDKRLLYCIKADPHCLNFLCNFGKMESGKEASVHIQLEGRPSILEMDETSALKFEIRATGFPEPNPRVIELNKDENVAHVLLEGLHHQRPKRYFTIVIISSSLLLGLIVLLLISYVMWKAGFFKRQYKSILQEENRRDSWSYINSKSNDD
Sequence (P05556 21-798): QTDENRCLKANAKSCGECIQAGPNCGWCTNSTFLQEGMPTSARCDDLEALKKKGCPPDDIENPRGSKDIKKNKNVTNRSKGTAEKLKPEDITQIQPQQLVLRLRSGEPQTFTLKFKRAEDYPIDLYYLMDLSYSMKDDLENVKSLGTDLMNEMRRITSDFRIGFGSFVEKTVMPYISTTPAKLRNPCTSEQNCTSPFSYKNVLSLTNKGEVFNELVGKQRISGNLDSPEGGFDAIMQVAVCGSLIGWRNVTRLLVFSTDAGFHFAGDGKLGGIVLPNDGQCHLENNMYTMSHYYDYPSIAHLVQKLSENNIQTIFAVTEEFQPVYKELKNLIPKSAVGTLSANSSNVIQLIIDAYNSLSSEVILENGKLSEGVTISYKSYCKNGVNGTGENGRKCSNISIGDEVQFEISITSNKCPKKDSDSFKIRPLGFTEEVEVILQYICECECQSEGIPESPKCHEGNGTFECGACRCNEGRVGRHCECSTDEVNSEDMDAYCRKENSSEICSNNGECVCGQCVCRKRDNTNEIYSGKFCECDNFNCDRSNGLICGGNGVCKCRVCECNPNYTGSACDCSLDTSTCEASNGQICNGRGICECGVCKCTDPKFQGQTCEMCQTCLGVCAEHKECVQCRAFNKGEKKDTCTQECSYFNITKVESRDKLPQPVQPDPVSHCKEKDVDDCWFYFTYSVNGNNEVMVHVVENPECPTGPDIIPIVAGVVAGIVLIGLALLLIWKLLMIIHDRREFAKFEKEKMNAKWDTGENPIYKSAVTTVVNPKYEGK
Test: In vitro inhibition of binding between CHO cells expressing hα4 and β1 integrins and Eu3+-hVCAM-1 D1D7-IgG
Conditions: CHO cells expressing hα4 and β1 integrins; Eu3+-hVCAM-1 D1D7-IgG ligand; without HSA
Listed here are compounds together with their documented pKi.
Answer as the number alone; pKi is minus log10 of concentration in mol/L.

>  <compound>
COC[C@@H]1C[C@H](F)CN1[C@H]1C[C@@H](CO[C@H]2CC[C@H](C(=O)O)CC2)N(C(=O)Cc2cc(Cl)c(NC(=O)c3cn(C)c4ccccc34)cc2Cl)C1 [Example 45]

>  <pKi>
7.85

$$$$

Form: item Cn1cc(C(=O)Nc2cc(F)c(CC(=O)N3C[C@@H](N4CCN(c5ccncc5)CC4)C[C@H]3CO[C@H]3CC[C@H](C(=O)O)CC3)cc2Cl)c2ccccc21 [Example 145] ; test system hα4 and β1 integrins (Homo sapiens, UniProt P05556+P13612); pKi: 8.41

Form: item O=C(Nc1cc(F)c(CC(=O)N2C[C@@H](N3CCC(F)(F)C3)C[C@H]2CO[C@H]2CC[C@H](C(=O)O)CC2)cc1Cl)c1csc2ccccc12 [Example 38] ; test system hα4 and β1 integrins (Homo sapiens, UniProt P05556+P13612); pKi: 8.77

Form: item CC1CCN([C@H]2C[C@@H](CO[C@H]3CC[C@H](C(=O)O)CC3)N(C(=O)Cc3cc(Cl)c(NC(=O)c4csc5ccccc45)cc3F)C2)CC1 [Example 98] ; test system hα4 and β1 integrins (Homo sapiens, UniProt P05556+P13612); pKi: 9.05

Form: item CO[C@H]1CN([C@H]2C[C@@H](CO[C@H]3CC[C@H](C(=O)O)CC3)N(C(=O)Cc3ccc(NC(=O)c4coc5ccccc45)c(Cl)c3)C2)C[C@H]1OC (relative stereo) [Example 61] ; test system hα4 and β1 integrins (Homo sapiens, UniProt P05556+P13612); pKi: 8.80

Form: item C[C@@H]1CN([C@H]2C[C@@H](CO[C@H]3CC[C@H](C(=O)O)CC3)N(C(=O)Cc3cc(Cl)c(NC(=O)c4coc5ccccc45)cc3F)C2)C[C@H](C)O1 [Example 84] ; test system hα4 and β1 integrins (Homo sapiens, UniProt P05556+P13612); pKi: 8.62

====

Target: hα4 and β1 integrins (Homo sapiens, UniProt P05556+P13612)
Experiment: In vitro inhibition of binding between CHO cells expressing hα4 and β1 integrins and Eu3+-hVCAM-1 D1D7-IgG
Conditions: CHO cells expressing hα4 and β1 integrins; Eu3+-hVCAM-1 D1D7-IgG ligand; without HSA
Simple rule here: Ki less than 4 nM is Yes, otherwise No.

>  <compound>
CC1(C)O[C@H]2CN([C@H]3C[C@@H](CO[C@H]4CC[C@H](C(=O)O)CC4)N(C(=O)Cc4cc(Cl)c(NC(=O)c5csc6ccccc56)cc4Cl)C3)C[C@H]2O1 [Example 75]

>  <qualitative label>
Yes

$$$$
>  <compound>
CN(C)S(=O)(=O)N1CCN([C@H]2C[C@@H](CO[C@H]3CC[C@H](C(=O)O)CC3)N(C(=O)Cc3cc(Cl)c(NC(=O)c4cn(C)c5ccccc45)cc3Cl)C2)CC1 [Example 151]

>  <qualitative label>
No

$$$$
>  <compound>
O=C(Nc1cc(Cl)c(CC(=O)N2C[C@@H](N3CCCCC3)C[C@H]2CO[C@H]2CC[C@H](C(=O)O)CC2)cc1Cl)c1csc2ccccc12 [Example 95]

>  <qualitative label>
Yes

$$$$

Query string: Is it true that Ki reported for O=C(Nc1cc(F)c(CC(=O)N2C[C@@H](N3CCN(Cc4ccccc4)CC3)C[C@H]2CO[C@H]2CC[C@H](C(=O)O)CC2)cc1Cl)c1csc2ccccc12 [Example 116] is less than 4 nM?
Result string: Yes

====

Experiment: Solubility test in first and second liquid of the Japanese Pharmacopoeia
Conditions: second liquid of the Japanese Pharmacopoeia (JP2), pH 6.8, aqueous buffer, Solubility, Second liquid of Japanese Pharmacopoeia (μg/mL), JP2, pH=6.8
property label: solubility (µg/mL)
Report as a plain number; the unit µg/mL is understood.

Example entries begin here.
>  <compound>
CC(C)N1CCN([C@H]2C[C@@H](CO[C@H]3CC[C@H](C(=O)O)CC3)N(C(=O)Cc3cc(Cl)c(NC(=O)c4cn(C)c5ccccc45)cc3Cl)C2)CC1

>  <property label>
solubility

>  <measured number>
1000

$$$$
>  <compound>
COC[C@@H]1C[C@H](OC)CN1[C@H]1C[C@@H](CO[C@H]2CC[C@H](C(=O)O)CC2)N(C(=O)Cc2cc(Cl)c(NC(=O)c3cn(C)c4ccccc34)cc2Cl)C1

>  <property label>
solubility

>  <measured number>
1200

$$$$

Would you kindly look at the next entry?
Entry Cn1cc(C(=O)Nc2cc(Cl)c(CC(=O)N3C[C@@H](N4CC5CC4CN5C4CC4)C[C@H]3CO[C@H]3CC[C@H](C(=O)O)CC3)cc2Cl)c2ccccc21 (stereo partly drawn) ; solubility = 1000

====

Listed here are molecules together with their documented pKi.
Target: hα4 and β1 integrins (Homo sapiens, UniProt P05556+P13612)
Experiment: In vitro inhibition of binding between CHO cells expressing hα4 and β1 integrins and Eu3+-hVCAM-1 D1D7-IgG
Settings: CHO cells expressing hα4 and β1 integrins; Eu3+-hVCAM-1 D1D7-IgG ligand; without HSA
Answer as the number alone; pKi is minus log10 of concentration in mol/L.

Example entries begin here.
>  <molecule>
Cn1cc(C(=O)Nc2cc(Cl)c(CC(=O)N3C[C@@H](N4CCN(CCF)CC4)C[C@H]3CO[C@H]3CC[C@H](C(=O)O)CC3)cc2Cl)c2ccccc21 [Example 117]

>  <pKi>
8.35

$$$$
>  <molecule>
CC1CN([C@H]2C[C@@H](CO[C@H]3CC[C@H](C(=O)O)CC3)N(C(=O)Cc3cc(Cl)c(NC(=O)c4cn(C)c5ccccc45)cc3Cl)C2)CC(C)O1 (stereo partly drawn) [Example 91]

>  <pKi>
8.62

$$$$

Would you kindly look at the next entry?
Entry COCCC1CN([C@H]2C[C@@H](CO[C@H]3CC[C@H](C(=O)O)CC3)N(C(=O)Cc3cc(Cl)c(NC(=O)c4csc5ccccc45)cc3F)C2)C1 [Example 12] ; pKi = 9.00

====

Listed here are compounds together with their documented Ki.
Biological target: hα4 and β1 integrins (Homo sapiens, UniProt P05556+P13612)
Assay: In vitro inhibition of binding between CHO cells expressing hα4 and β1 integrins and Eu3+-hVCAM-1 D1D7-IgG
Conditions: CHO cells expressing hα4 and β1 integrins; Eu3+-hVCAM-1 D1D7-IgG ligand; without HSA
Report as a plain number; the unit nM is understood.

>  <compound>
O=C(Nc1cc(F)c(CC(=O)N2C[C@@H](N3CCN(CC(F)(F)F)CC3)C[C@H]2CO[C@H]2CC[C@H](C(=O)O)CC2)cc1Cl)c1c[nH]c2ccccc12

>  <Ki (nM)>
1.1

$$$$
>  <compound>
Cn1cc(C(=O)Nc2ccc(CC(=O)N3C[C@@H](N4CCN(CC(F)(F)F)CC4)C[C@H]3CO[C@H]3CC[C@H](C(=O)O)CC3)cc2Cl)c2ccccc21

>  <Ki (nM)>
2.7

$$$$
>  <compound>
COCCN1CCN([C@H]2C[C@@H](CO[C@H]3CC[C@H](C(=O)O)CC3)N(C(=O)Cc3cc(Cl)c(NC(=O)c4cn(C)c5ccccc45)cc3Cl)C2)CC1

>  <Ki (nM)>
2.9

$$$$
>  <compound>
CC1CCCN1[C@H]1C[C@@H](CO[C@H]2CC[C@H](C(=O)O)CC2)N(C(=O)Cc2cc(Cl)c(NC(=O)c3csc4ccccc34)cc2F)C1 (some centres unmarked)

>  <Ki (nM)>
2

$$$$
>  <compound>
O=C(Nc1cc(F)c(CC(=O)N2C[C@@H](N3C[C@@H]4OCO[C@@H]4C3)C[C@H]2CO[C@H]2CC[C@H](C(=O)O)CC2)cc1Cl)c1coc2ccccc12

>  <Ki (nM)>
1.5

$$$$

Entry COC1CCN([C@H]2C[C@@H](CC[C@H]3CC[C@H](C(=O)O)CC3)N(C(=O)Cc3cc(Cl)c(NC(=O)c4cn(C)c5ccccc45)cc3Cl)C2)CC1 ; Ki = 4.9

Entry CO[C@H]1CN([C@H]2C[C@@H](CO[C@H]3CC[C@H](C(=O)O)CC3)N(C(=O)Cc3cc(Cl)c(NC(=O)c4coc5ccccc45)cc3F)C2)C[C@@H]1OC ; Ki = 2

Entry C[C@@H]1CN([C@H]2C[C@@H](CO[C@H]3CC[C@H](C(=O)O)CC3)N(C(=O)Cc3ccc(NC(=O)c4nccc5ccccc45)c(Cl)c3)C2)C[C@H](C)O1 ; Ki = 4.5

Entry COCC1CCN([C@H]2C[C@@H](CO[C@H]3CC[C@H](C(=O)O)CC3)N(C(=O)Cc3cc(Cl)c(NC(=O)c4csc5ccccc45)cc3F)C2)CC1 ; Ki = 0.34

Entry COC1CN([C@H]2C[C@@H](CO[C@H]3CC[C@H](C(=O)O)CC3)N(C(=O)Cc3cc(Cl)c(NC(=O)c4cn(C)c5ccccc45)cc3Cl)C2)C1 (relative stereo) ; Ki = 2.2

Entry Cn1cc(C(=O)Nc2cc(F)c(CC(=O)N3C[C@@H](N4CCN(CC(F)(F)F)CC4)C[C@H]3CO[C@H]3CC[C@H](C(=O)O)CC3)cc2Cl)c2ccccc21 ; Ki = 4.9
